target.entity: UniProtKB Q07820
assay.info: Fluorescence polarization competition assay (FPCA), Mcl-1 / FITC-Bak BH3 peptide
Format: binding
conditions.used: FPCA with FITC-Bak; Ki from IC50 by Nikolovska-Coleska equation; read-out: Mcl-1 Ki
pKi: −log10 of the molar value.
# binarize pKi: threshold 5 inclusive, high side Met, low side Not met

> print(dat)
                                   compound      cat
1  Cc1ccc(Oc2ccc(S(=O)(=O)N(CC(C)C)c3ccc(C(=O)O)c(O)c3)cc2)cc1 [LC-4-119 13ah]      Met
2  CC(C)CN(c1ccc(C(=O)O)c(O)c1)S(=O)(=O)c1ccc(Oc2ccc(Cl)cc2Cl)cc1 [LC-4-111 13aj]      Met
3  CC(C)CN(c1ccc(C#N)c(O)c1)S(=O)(=O)c1ccc(Oc2ccccc2)cc1 [LC-5-050 23]  Not met
4  CC(C)CN(c1ccc(C(=O)O)c(O)c1)S(=O)(=O)c1ccccc1 [4jc117-1 13aa]  Not met
5  Cc1ccc(S(=O)(=O)N(CC(C)C)c2ccc(C(=O)O)c(O)c2)cc1 [4jc117-2 13af]  Not met

## Task Has O=C(O)c1cc(S(=O)(=O)Nc2ccc3ccccc3c2)c2ccccc2c1O [Compound 3q] a recorded pKi greater than or equal to 5?
## Result Met

* * *

target.entity: UniProt:Q07817
Sequence (Q07817 whole entry): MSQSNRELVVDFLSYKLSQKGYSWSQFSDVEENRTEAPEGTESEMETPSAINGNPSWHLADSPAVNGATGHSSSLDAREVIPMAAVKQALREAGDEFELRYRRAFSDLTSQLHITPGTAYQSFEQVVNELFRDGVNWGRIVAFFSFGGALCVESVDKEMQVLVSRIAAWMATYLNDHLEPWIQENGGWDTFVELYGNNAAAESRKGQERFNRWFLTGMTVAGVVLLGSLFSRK
assay.info: Fluorescence polarization competition assay, Bcl-xL
Type: binding
conditions.used: Ki from IC50 by Nikolovska-Coleska equation; NA = no activity; read-out: Bcl-xL Ki
For each entry below, report its Ki value.
Answers are plain numbers, in nM.

As a guide, the following entries are already answered.
compound	Ki (nM)
Cc1cc(Oc2ccc(S(=O)(=O)N(Cc3ccccc3)c3ccc(O)c(C(=O)O)c3)cc2)cc(C)c1Cl [LC-5-129 29]	1820
Cc1cc(Oc2ccc(S(=O)(=O)N(CC(C)C)c3ccc(O)c(C(=O)O)c3)cc2)cc(C)c1Cl [JY-5-304 18bd]	2900
O=C(O)c1cc(S(=O)(=O)Nc2ccc(Oc3cccc(Br)c3)cc2)c2ccccc2c1O [Compound 3be]	300
Cc1cc(Oc2ccc(S(=O)(=O)N(Cc3ccccc3)c3ccc(C(=O)NS(=O)(=O)c4ccc(NCC5CCOCC5)c([N+](=O)[O-])c4)c(O)c3)cc2)cc(C)c1Cl [LC-5-131 31]	1620
Cc1ccc(Oc2ccc(NS(=O)(=O)c3cc(C(=O)O)c(O)c4ccccc34)cc2)cc1 [Compound 3bc]	840

## Task Field request: Ki | item: Cc1cc(Oc2ccc(S(=O)(=O)N(Cc3ccccc3)c3ccc(O)c(C(=O)NS(=O)(=O)c4ccc(NCC5CCOCC5)c([N+](=O)[O-])c4)c3)cc2)cc(C)c1Cl [LC-5-132 33]
## Result 1540

* * *

target.entity: Mcl-1 (Homo sapiens (Human))
Sequence (Q07820 172-327): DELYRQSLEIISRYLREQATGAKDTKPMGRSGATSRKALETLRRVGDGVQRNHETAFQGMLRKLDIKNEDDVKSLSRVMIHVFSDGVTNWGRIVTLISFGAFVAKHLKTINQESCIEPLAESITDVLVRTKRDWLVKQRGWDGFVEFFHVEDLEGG
assay.info: Fluorescence polarization competition assay (FPCA), Mcl-1 / FITC-Bak BH3 peptide
Format: binding
conditions.used: FPCA with FITC-Bak; Ki from IC50 by Nikolovska-Coleska equation; read-out: Mcl-1 Ki
endpoint.name: pKi
Numbers only, as −log10 of the molar value.

As a guide, the following entries are already answered.
> print(dat)
                            compound.smiles  endpoint.name   val
1  O=C(O)c1ccc2c(c1)CCCN2S(=O)(=O)c1ccc2ccccc2c1            pKi  4.66
2  CC(C)Oc1ccc(NS(=O)(=O)c2cc(C(=O)O)c(O)c3ccccc23)cc1            pKi  4.27

Kindly give each listed record's pKi.
1. O=C(O)c1cc(S(=O)(=O)NCc2cccc(Cl)c2)c2ccccc2c1O
2. O=C(O)c1cc(S(=O)(=O)Nc2ccccc2-c2ccccc2)c2ccccc2c1O

## Result
[5.30, 5.07]
